Data origin, for the record: patent US20210268115A1

# CONDITION_SET: male, Sprague-Dawley, rat, in vivo, 2 mg/kg
Provide the reported Mean Plasma AUC, 0-24 h of each item.

input: Sample CCC(=O)OCC(COC(=O)CC)OC(=O)C(C)CCCCCCCCC(C)C(=O)OCCCCC(=O)O[C@@H]1CC[C@@]2(C)[C@@H](CC[C@@H]3[C@@H]2CC[C@]2(C)[C@@H](C(C)=O)CC[C@@H]32)C1 (stereo partly shown) [Compound I-5, ALL-FSI5-C12a′aMe-2-TG] — what was its Mean Plasma AUC, 0-24 h?
output: 0.0839 µM·h

input: Continue with CCCCCCCCCCCCCCCC(=O)OCC(COC(=O)CCCCCCCCCCCCCCC)OC(=O)CC(C)CC(=O)OC(C)OC(=O)O[C@@H]1CC[C@@]2(C)[C@@H](CC[C@@H]3[C@@H]2CC[C@]2(C)[C@@H](C(C)=O)CC[C@@H]32)C1 (stereo partly shown)
output: 0.3681 µM·h

input: And for CCCCCCCC/C=C\CCCCCCCC(=O)OCC(COC(=O)CCCCCCC/C=C\CCCCCCCC)OC(=O)CC(C)CCCCC(=O)OCO[C@@H]1CC[C@@]2(C)[C@@H](CC[C@@H]3[C@@H]2CC[C@]2(C)[C@@H](C(C)=O)CC[C@@H]32)C1 (stereo partly shown) [Compound I-42, ALL-ASI-C8bMe-2-TG-oleate] ?
output: 0.47 µM·h

input: Please answer likewise for CCCCCCCC/C=C\CCCCCCCC(=O)OCC(COC(=O)CCCCCCC/C=C\CCCCCCCC)OC(=O)CCCCC(=O)OCO[C@@H]1CC[C@@]2(C)[C@@H](CC[C@@H]3[C@@H]2CC[C@]2(C)[C@@H](C(C)=O)CC[C@@H]32)C1 [Compound I-40, ALL-ASI-C6-2-TG-oleate]
output: 0.265 µM·h

====

# CONDITION_SET: male, Sprague-Dawley, rat, in vivo, 2 mg/kg
I'd be grateful if you could share measured Cmax for these entries.
Please append the unit to your numeric answer.

input: Look up Cmax for this compound: CCCCCCCC/C=C\CCCCCCCC(=O)OCC(COC(=O)CCCCCCC/C=C\CCCCCCCC)OC(=O)CCCCCCC(=O)OCO[C@@H]1CC[C@@]2(C)[C@@H](CC[C@@H]3[C@@H]2CC[C@]2(C)[C@@H](C(C)=O)CC[C@@H]32)C1 [Compound I-41, ALL-ASI-C8-2-TG-oleate]
output: 129 nM

input: Proceed to CCCCCCCC/C=C\CCCCCCCC(=O)OCC(COC(=O)CCCCCCC/C=C\CCCCCCCC)OC(=O)CCCCC(=O)OCO[C@@H]1CC[C@@]2(C)[C@@H](CC[C@@H]3[C@@H]2CC[C@]2(C)[C@@H](C(C)=O)CC[C@@H]32)C1 [Compound I-40, ALL-ASI-C6-2-TG-oleate]
output: 165 nM

====

# CONDITION_SET: male, Sprague-Dawley, rat, in vivo, 2 mg/kg
What Cmax was measured for each of the following?
Form entry: enter the amount, then its unit.

input: Fill blank: measured Cmax of the compound CCC(=O)OCC(COC(=O)CC)OC(=O)C(C)CCCCCCCCC(C)C(=O)OCCCCC(=O)O[C@@H]1CC[C@@]2(C)[C@@H](CC[C@@H]3[C@@H]2CC[C@]2(C)[C@@H](C(C)=O)CC[C@@H]32)C1 (some centres unmarked) [Compound I-5, ALL-FSI5-C12a′aMe-2-TG] is ____.
output: 62.8 nM

input: Quick one: CCCCCCCC/C=C\CCCCCCCC(=O)OCC(COC(=O)CCCCCCC/C=C\CCCCCCCC)OC(=O)CCCCC(C)CC(=O)OCOC(=O)O[C@@H]1CC[C@@]2(C)[C@@H](CC[C@@H]3[C@@H]2CC[C@]2(C)[C@@H](C(C)=O)CC[C@@H]32)C1 (some centres unmarked) [Compound I-49, ALL-CASI-C8b′Me-2-TG-oleate]
output: 370 nM

input: Cool, now CCC(=O)OCC(COC(=O)CC)OC(=O)C(C)CCCCCCCCC(C)C(=O)OC(C)OC(=O)O[C@@H]1CC[C@@]2(C)[C@@H](CC[C@@H]3[C@@H]2CC[C@]2(C)[C@@H](C(C)=O)CC[C@@H]32)C1 (some centres unmarked) [Compound I-6, ALL-CMSI-C12a′aMe-2-TG]
output: 239 nM

input: Please do the same for CCCCCCCC/C=C\CCCCCCCC(=O)OCC(COC(=O)CCCCCCC/C=C\CCCCCCCC)OC(=O)CC(C)CCCCC(=O)OCO[C@@H]1CC[C@@]2(C)[C@@H](CC[C@@H]3[C@@H]2CC[C@]2(C)[C@@H](C(C)=O)CC[C@@H]32)C1 (some centres unmarked) [Compound I-42, ALL-ASI-C8bMe-2-TG-oleate] as well.
output: 334 nM

input: Same question, CCCCCCCCCCCCCCCC(=O)OCC(COC(=O)CCCCCCCCCCCCCCC)OC(=O)CC(C)CC(=O)OC(C)OC(=O)O[C@@H]1CC[C@@]2(C)[C@@H](CC[C@@H]3[C@@H]2CC[C@]2(C)[C@@H](C(C)=O)CC[C@@H]32)C1 (some centres unmarked) this time
output: 241 nM
